Ref: the supplement of paper PMC9170038

# Tested on: MS2 coat protein
# MEASUREMENT_DESCRIPTION: apparent KD of MS2 coat protein; higher = weaker reporter binding
# REPORTED_CONDITIONS: Eterna round: R107; input ligand: theophylline 2 mM
ENDPOINT: apparent KD of MS2 coat protein (µM)
Form entry: value (µM) — number only.

These recorded examples may help you get a feel for the data.
{"columns": ["RESIDUE_CODES", "RESULT_UNIT", "DATA_VALUE"],
 "data": [
  ["AAACGCCACGGAAGGAGCGACAUGAGGAUCACCCAUGUAGAUUUGGCGGAUGCACCCUCCUGUCAGGUAGGUCGCCGUGCGCUAA [XArg-B24]", "µM", 0.0999],
  ["GUUUAAAGGUCGGCCGCCACUGUAGGAUGUGUUCUUUCACAUGAGGAUCACCCAUGUUGUUAUUAUAGGACCGGGAUUUUAGGAC [39MS split4]", "µM", 0.0274]
]}

Which apparent KD of MS2 coat protein is reported for this sequence? "UGAUACCAGUCGGCCGCCACUACAUGAGGAUCACCCAUGUAUGGGUCAAUGCUAGAUACUAGCAGUAGGACCGGGACUGGUAUCU"
0.0132
